test: NCI Yeast Anticancer Drug Screen. Data for the cln2 rad14 strain (AID 165);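 also: 0% = growth equal to vehicle treated cultures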; details: S. cerevisiae cln2 rad14 strain, at 50.0 µM, stronger effect = higher value
Compounds without any hit were thinned out: in the full panel of roughly 79,000, 15% have a hit.
Decide using growth inhibition: a value greater than or equal to 20% is Condition met, a smaller one is Condition not met.

INSERT INTO measurements (molecule, labelclass) VALUES
  ('O=C1CCCCCCC2=C1C(Sc1ccccc1)CC2 (configuration not stated)', 'Condition met'),
  ('CCCCCCCCCCCCCC(=O)OCCCC1CCCO1 (configuration not stated)', 'Condition met'),
  ('Cc1cc(=O)n(-c2ccc(F)cc2)n1C', 'Condition met'),
  ('CCCCC1(C(O)CC)Sc2ccccc2N1C (configuration not stated)', 'Condition met'),
  ('O=C(CCl)Nc1cc(Cl)ccc1Cl', 'Condition not met'),
  ('C=C(C)COc1ccccc1C(OCC)OCC', 'Condition not met');

Lab note: next molecule to report on.
growth inhibition >= 20% for `C[C@]12C[C@H](c3ccccc3)Nc3ccccc3N1C(c1ccccc1)=NO2` ?
Condition met

---

assay: NCI Yeast Anticancer Drug Screen. Data for the rad50 strain (AID 155);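 also: 0% = growth of vehicle-only cultures of the same strain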; conditions: S. cerevisiae rad50 strain growth inhibition; at 5.0 µM (retest, dose inferred, filed as 0.5); stronger effect = higher value
Compounds without any hit were thinned out: in the full panel of roughly 79,000, 15% have a hit.
Reported growth inhibition values for the following molecules.
Report the figure in % without appending any unit label.

INSERT INTO assay_data (molecule, readouttype, resultunit, valuereported) VALUES
  ('O=C(NC1CCN(Cc2ccccc2)CC1)c1ccccc1I', 'growth inhibition', '%', 48);

Field request: growth inhibition | item: `COc1ccc(C(=O)c2cc(Br)ccc2O)cc1`
-3

Field request: growth inhibition | item: CCCCCCCCCCCCCC/C(=C/OCC[N+](C)(C)C)OC(C)=O (tested in a mixture with another compound)
99

Field request: growth inhibition | item: Cc1nn(C(=O)c2ccccc2O)c2c1C(c1ccc3ccccc3c1O)SC(N)=N2 (stereo unspecified)
8

Field request: growth inhibition | item: `CCN(CC)CCOC(=O)c1ccc(N=Nc2ccc(O)c3ccccc23)cc1`
0

Field request: growth inhibition | item: CN1CCN(C2=C(Cl)C3(OCCS3)C(F)(F)C2(F)F)CC1 (stereo unspecified)
-1

---

experiment: NCI Yeast Anticancer Drug Screen. Data for the cln2 rad14 strain (AID 165);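 also: 0% = growth equal to vehicle treated cultures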; conditions: S. cerevisiae cln2 rad14 strain, at 50.0 µM, stronger effect = higher value
This is part of a sample that, as a whole, favours compounds with a hit. Of some 79,000 tested, about 15% had one in any assay.
Reported growth inhibition values for the following compounds.
Report the figure in % without appending any unit label.

Answered cases to consult:
INSERT INTO results (compound, readouttype, resultunit, valuereported) VALUES
  ('O=C(Oc1ccccc1)c1ccc2ccccc2c1O', 'growth inhibition', '%', -47.1),
  ('COC(=O)c1ccc(NCC2=C(Br)C(=O)C=CC2=O)cc1Cl', 'growth inhibition', '%', 88.8),
  ('Cc1c(Cl)cccc1NC(=O)/C(Cl)=C(\Cl)C(=O)O', 'growth inhibition', '%', 99.3),
  ('O=C1O/C(=C(\Cc2ccccc2)c2ccccc2)N(c2ccccc2)C1=O', 'growth inhibition', '%', -30.2);

Field request: growth inhibition | item: Cn1c(CCC2(C)Cc3ccccc3C(=O)O2)cc2ccccc2c1=O (stereo unspecified)
28.4

Field request: growth inhibition | item: `O=C(OCCCC(C(=O)c1ccccc1)=P(c1ccccc1)(c1ccccc1)c1ccccc1)c1ccccc1`
9.75
